Assay: A CellTox Green Cytotoxicity Assay to monitor cytotoxicity in HEK293 cells - 16 hour (AID 1224888); also: nearly all actives have a fitted effect of over 35% in size
Conditions: CellTox Green fluorescence; series mostly up to 76.8 µM
Records with an inconclusive call do not appear. Calls of active or inactive are those of the source. Calls follow the shape of the dose curve; as a rule, active = well fitted activation curve with a large enough effect in the repeat runs; inconclusive = weak or mixed curves; inactive = flat fitted curve, though single readings scatter.

Compound | outcome
CCCCC(CC)COC(=O)c1ccc(N(C)C)cc1 (configuration not stated) | inactive
COc1ccc(C(=O)CC(=O)c2ccc(C(C)(C)C)cc2)cc1 | inactive
Oc1ccc(O)cc1 | inactive
COC(=O)C1=C(C)NC(C)=C(C(=O)OCCN(C)Cc2ccccc2)C1c1cccc([N+](=O)[O-])c1 (configuration not stated) | inactive
CCCCC(CC)COCC1CO1 (configuration not stated) | inactive
COc1ccc(OC)c(C(O)CNC(=O)CN)c1 (configuration not stated) | inactive
C=CC(C)(CCC=C(C)C)OC(C)=O (configuration not stated) | inactive
